Readout type: IC50

Exercise: Param request: IC50 | system Jarid1B (Homo sapiens (Human), UniProt Q9UGL1) | item O=C(O)c1ccnc(-n2nccc2OCc2ccc(Cl)cc2OCc2ccc(F)cc2)c1 [Example 117]
Key: 100 to 1000 nM

Exercise: Param request: IC50 | system Jarid1B (Homo sapiens (Human), UniProt Q9UGL1) | item CCc1ccc(COc2ccnn2-c2cc(C(=O)O)ccn2)cc1Cl [Example 95]
Key: < 100 nM

Exercise: Param request: IC50 | system Jarid1B (Homo sapiens (Human), UniProt Q9UGL1) | item CC1(C)Cc2cccc(COc3ccnn3-c3cc(C(=O)O)ccn3)c2O1 [Example 124]
Key: < 100 nM

Exercise: Param request: IC50 | system Jarid1B (Homo sapiens (Human), UniProt Q9UGL1) | item CN(CCc1cnn(-c2cc(C(=O)O)ccn2)c1)Cc1ccc(F)cc1 [Example 156]
Key: < 100 nM

###

# Target under test: FBXL10 (Homo sapiens (Human), UniProt Q8NHM5)
# Sequence (Q8NHM5 1-650): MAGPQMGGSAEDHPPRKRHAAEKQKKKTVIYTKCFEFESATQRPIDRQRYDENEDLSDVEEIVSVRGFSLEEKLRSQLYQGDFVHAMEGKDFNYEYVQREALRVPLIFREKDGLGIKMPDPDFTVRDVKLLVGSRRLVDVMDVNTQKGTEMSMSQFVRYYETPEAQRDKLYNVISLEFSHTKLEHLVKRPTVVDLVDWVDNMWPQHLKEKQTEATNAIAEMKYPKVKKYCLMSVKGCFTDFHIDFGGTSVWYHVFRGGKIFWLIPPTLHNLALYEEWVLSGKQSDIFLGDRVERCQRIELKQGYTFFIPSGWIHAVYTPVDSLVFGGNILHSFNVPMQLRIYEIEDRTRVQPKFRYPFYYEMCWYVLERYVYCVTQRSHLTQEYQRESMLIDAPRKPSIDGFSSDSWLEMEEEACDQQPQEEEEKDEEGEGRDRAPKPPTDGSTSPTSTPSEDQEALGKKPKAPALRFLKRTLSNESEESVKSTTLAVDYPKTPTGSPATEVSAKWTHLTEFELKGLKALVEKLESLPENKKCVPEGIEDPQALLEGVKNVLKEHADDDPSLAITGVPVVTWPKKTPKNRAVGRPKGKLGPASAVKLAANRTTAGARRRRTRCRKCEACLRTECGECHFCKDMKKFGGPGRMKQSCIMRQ
# Measurement description: FBXL10 in vitro enzyme inhibition assay (AlphaScreen)
# Type: biochemical
Readout type: IC50

Exercise: Param request: IC50 | system FBXL10 (Homo sapiens (Human), UniProt Q8NHM5) | item `O=C(O)c1ccnc(-n2nc(-c3ccccc3Cl)cc2O)c1`
Key: < 100 nM

Exercise: Param request: IC50 | system FBXL10 (Homo sapiens (Human), UniProt Q8NHM5) | item `O=C(O)c1ccnc(-n2nccc2OCc2ccc(Cl)cc2OCC2CC2)c1`
Key: 1000 to 10000 nM

Exercise: Param request: IC50 | system FBXL10 (Homo sapiens (Human), UniProt Q8NHM5) | item `CCCc1cc(O)n(-c2cc(C(=O)O)ccn2)n1`
Key: 100 to 1000 nM

Exercise: Param request: IC50 | system FBXL10 (Homo sapiens (Human), UniProt Q8NHM5) | item `O=C(O)c1ccnc(-n2nccc2OCc2ccc(F)cc2)c1`
Key: > 10000 nM

Exercise: Param request: IC50 | system FBXL10 (Homo sapiens (Human), UniProt Q8NHM5) | item `Cc1nn(-c2cc(C(=O)O)ccn2)c(O)c1C`
Key: 100 to 1000 nM

Exercise: Param request: IC50 | system FBXL10 (Homo sapiens (Human), UniProt Q8NHM5) | item `CN(CCc1cnn(-c2cc(C(=O)O)ccn2)c1)Cc1ccc(F)cc1`
Key: > 10000 nM

Exercise: Param request: IC50 | system FBXL10 (Homo sapiens (Human), UniProt Q8NHM5) | item `CC(C)COc1cc(Cl)ccc1COc1ccnn1-c1cc(C(=O)O)ccn1`
Key: 1000 to 10000 nM

Exercise: Param request: IC50 | system FBXL10 (Homo sapiens (Human), UniProt Q8NHM5) | item `COc1cc(C)ccc1COc1ccnn1-c1cc(C(=O)O)ccn1`
Key: 1000 to 10000 nM

Exercise: Param request: IC50 | system FBXL10 (Homo sapiens (Human), UniProt Q8NHM5) | item `O=C(O)c1ccnc(-n2nccc2OCc2ccc(F)cc2OCc2ccc(F)cc2)c1`
Key: 1000 to 10000 nM

Exercise: Param request: IC50 | system FBXL10 (Homo sapiens (Human), UniProt Q8NHM5) | item `O=C(O)c1ccnc(-n2nc(Cc3c(F)cccc3F)cc2O)c1`
Key: < 100 nM

Exercise: Param request: IC50 | system FBXL10 (Homo sapiens (Human), UniProt Q8NHM5) | item `O=C(O)c1ccnc(-n2ccc(Cc3ccccc3)n2)c1`
Key: 1000 to 10000 nM

Exercise: Param request: IC50 | system FBXL10 (Homo sapiens (Human), UniProt Q8NHM5) | item `O=C(O)c1ccnc(-n2nc(-c3cccc(Cl)c3)cc2O)c1`
Key: < 100 nM

Exercise: Param request: IC50 | system FBXL10 (Homo sapiens (Human), UniProt Q8NHM5) | item `Cc1ccc(COc2ccnn2-c2cc(C(=O)O)ccn2)c(C)c1`
Key: 1000 to 10000 nM

Exercise: Param request: IC50 | system FBXL10 (Homo sapiens (Human), UniProt Q8NHM5) | item `O=C(O)c1ccnc(-n2nc(Cc3ccc(F)cc3F)cc2O)c1`
Key: < 100 nM

Exercise: Param request: IC50 | system FBXL10 (Homo sapiens (Human), UniProt Q8NHM5) | item `CCCCOc1cc(Cl)ccc1COc1ccnn1-c1cc(C(=O)O)ccn1`
Key: 1000 to 10000 nM

Exercise: Param request: IC50 | system FBXL10 (Homo sapiens (Human), UniProt Q8NHM5) | item `O=C(O)c1ccnc(-n2nccc2OCc2ccc(Cl)c(OCC3CC3)c2)c1`
Key: 1000 to 10000 nM

Exercise: Param request: IC50 | system FBXL10 (Homo sapiens (Human), UniProt Q8NHM5) | item `O=C(O)c1ccnc(-n2nc(Cc3cccc(Cl)c3)cc2O)c1`
Key: < 100 nM

Exercise: Param request: IC50 | system FBXL10 (Homo sapiens (Human), UniProt Q8NHM5) | item `CC(C)(c1ccc(Cl)cc1)c1cc(O)n(-c2cc(C(=O)O)ccn2)n1`
Key: < 100 nM

###

# Target under test: Jarid1B (Homo sapiens (Human), UniProt Q9UGL1)
# Sequence (Q9UGL1 2-751): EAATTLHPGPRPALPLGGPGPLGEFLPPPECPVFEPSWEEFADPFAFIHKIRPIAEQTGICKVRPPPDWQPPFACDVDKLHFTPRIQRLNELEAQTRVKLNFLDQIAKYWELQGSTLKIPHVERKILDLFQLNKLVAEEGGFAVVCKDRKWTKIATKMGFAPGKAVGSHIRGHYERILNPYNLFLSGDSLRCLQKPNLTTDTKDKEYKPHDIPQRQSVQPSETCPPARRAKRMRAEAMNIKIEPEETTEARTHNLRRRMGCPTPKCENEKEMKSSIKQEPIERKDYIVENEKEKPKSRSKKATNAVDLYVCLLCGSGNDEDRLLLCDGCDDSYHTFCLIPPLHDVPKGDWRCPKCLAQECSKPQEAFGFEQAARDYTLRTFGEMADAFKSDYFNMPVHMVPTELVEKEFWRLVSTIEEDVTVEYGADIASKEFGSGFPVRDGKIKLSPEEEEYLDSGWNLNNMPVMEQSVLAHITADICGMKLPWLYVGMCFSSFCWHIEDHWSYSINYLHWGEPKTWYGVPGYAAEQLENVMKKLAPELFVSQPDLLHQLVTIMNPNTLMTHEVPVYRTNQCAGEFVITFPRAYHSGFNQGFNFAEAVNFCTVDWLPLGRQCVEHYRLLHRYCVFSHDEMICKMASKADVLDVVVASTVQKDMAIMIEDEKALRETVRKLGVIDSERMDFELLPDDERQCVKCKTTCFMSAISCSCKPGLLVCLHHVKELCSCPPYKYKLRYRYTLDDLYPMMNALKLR
Would you kindly list IC50 for each of these compounds?

Exercise: Param request: IC50 | system Jarid1B (Homo sapiens (Human), UniProt Q9UGL1) | item O=C(O)c1ccnc(-n2nccc2-c2ccc(F)cc2F)c1 [Example 14]
Key: 100 to 1000 nM

Exercise: Param request: IC50 | system Jarid1B (Homo sapiens (Human), UniProt Q9UGL1) | item CS(=O)(=O)c1ccc(-c2ccnn2-c2cc(C(=O)O)ccn2)cc1 [Example 19]
Key: 100 to 1000 nM

Exercise: Param request: IC50 | system Jarid1B (Homo sapiens (Human), UniProt Q9UGL1) | item CCCCc1ccn(-c2cc(C(=O)O)ccn2)n1 [Example 45]
Key: 100 to 1000 nM

Exercise: Param request: IC50 | system Jarid1B (Homo sapiens (Human), UniProt Q9UGL1) | item O=C(O)c1ccnc(-n2nccc2OCc2ccc(F)cc2CCc2ccc(F)cc2)c1 [Example 121]
Key: 100 to 1000 nM

Exercise: Param request: IC50 | system Jarid1B (Homo sapiens (Human), UniProt Q9UGL1) | item Oc1cc(Cc2ccc(Cl)cc2)nn1-c1cc(-c2nnn[nH]2)ccn1 [Example 169]
Key: 1000 to 10000 nM

Exercise: Param request: IC50 | system Jarid1B (Homo sapiens (Human), UniProt Q9UGL1) | item CCc1ccc(COc2ccnn2-c2cc(C(=O)O)ccn2)c(F)c1 [Example 151]
Key: < 100 nM

Exercise: Param request: IC50 | system Jarid1B (Homo sapiens (Human), UniProt Q9UGL1) | item O=C(O)c1ccnc(-n2nccc2O)c1 [Example 11]
Key: < 100 nM

Exercise: Param request: IC50 | system Jarid1B (Homo sapiens (Human), UniProt Q9UGL1) | item O=C(O)c1ccnc(-n2nccc2Cc2ccccc2)c1 [Example 32]
Key: > 10000 nM

Exercise: Param request: IC50 | system Jarid1B (Homo sapiens (Human), UniProt Q9UGL1) | item O=C(O)c1ccnc(-n2nccc2OCc2ccc(Cl)c(OCc3ccc(F)cc3)c2)c1 [Example 138]
Key: < 100 nM

Exercise: Param request: IC50 | system Jarid1B (Homo sapiens (Human), UniProt Q9UGL1) | item O=C(O)c1ccnc(-n2nccc2OCc2cccc3c2OCC3)c1 [Example 123]
Key: < 100 nM

Exercise: Param request: IC50 | system Jarid1B (Homo sapiens (Human), UniProt Q9UGL1) | item CC(C)COc1cc(Cl)ccc1COc1ccnn1-c1cc(C(=O)O)ccn1 [Example 112]
Key: 100 to 1000 nM

Exercise: Param request: IC50 | system Jarid1B (Homo sapiens (Human), UniProt Q9UGL1) | item N#Cc1cccc(COc2ccnn2-c2cc(C(=O)O)ccn2)c1 [Example 97]
Key: < 100 nM

Exercise: Param request: IC50 | system Jarid1B (Homo sapiens (Human), UniProt Q9UGL1) | item O=C(O)c1ccnc(-n2nccc2OCc2ccc(Cl)c(Cl)c2)c1 [Example 87]
Key: < 100 nM

Exercise: Param request: IC50 | system Jarid1B (Homo sapiens (Human), UniProt Q9UGL1) | item Cc1ccc(COc2ccnn2-c2cc(C(=O)O)ccn2)c(Cl)c1 [Example 130]
Key: 100 to 1000 nM

Exercise: Param request: IC50 | system Jarid1B (Homo sapiens (Human), UniProt Q9UGL1) | item Cc1ccc(-c2cc(N)nn2-c2cc(C(=O)O)ccn2)cc1 [Example 48]
Key: 100 to 1000 nM

Exercise: Param request: IC50 | system Jarid1B (Homo sapiens (Human), UniProt Q9UGL1) | item COc1cc(Br)ccc1COc1ccnn1-c1cc(C(=O)O)ccn1 [Example 143]
Key: < 100 nM

Exercise: Param request: IC50 | system Jarid1B (Homo sapiens (Human), UniProt Q9UGL1) | item CC(c1ccccc1)c1cc(O)n(-c2cc(C(=O)O)ccn2)n1 (centres unmarked) [Example 162]
Key: 1000 to 10000 nM

Exercise: Param request: IC50 | system Jarid1B (Homo sapiens (Human), UniProt Q9UGL1) | item O=C(O)c1ccnc(-n2nccc2OCc2ccc(Cl)c(C(F)(F)F)c2)c1 [Example 91]
Key: < 100 nM

Exercise: Param request: IC50 | system Jarid1B (Homo sapiens (Human), UniProt Q9UGL1) | item O=C(O)c1ccnc(-n2nccc2OCc2ccc(C3CC3)cc2Cl)c1 [Example 152]
Key: 100 to 1000 nM

Exercise: Param request: IC50 | system Jarid1B (Homo sapiens (Human), UniProt Q9UGL1) | item O=C(O)c1ccnc(-n2nccc2OCc2ccncc2)c1 [Example 61]
Key: < 100 nM
